- STUDY_SYSTEM: HLA-A*68:02
- PROTOCOL_DETAILS: IEDB peptide-MHC binding, purified MHC/direct/fluorescence; filed as Kd, often an IC50 or EC50 that approximates it; bounds were set here for any values at or beyond the usual limits of such assays
- REPORTED_CONDITIONS: source organism: Listeria monocytogenes serotype 4b str. H7858
EXPERIMENTAL_READOUT: Kd

Using the record for FRDEAGAIL , report its Kd.
≥ 20 µM

---

- STUDY_SYSTEM: HLA-B*51:01
- PROTOCOL_DETAILS: IEDB peptide-MHC binding, purified MHC/direct/fluorescence; filed as Kd, often an IC50 or EC50 that approximates it; bounds were set here for any values at or beyond the usual limits of such assays
- REPORTED_CONDITIONS: source organism: dengue virus type 4
EXPERIMENTAL_READOUT: Kd

// lookup Kd for MPVMKRYSA
≥ 20 µM

---

- STUDY_SYSTEM: HLA-A*03:01
- PROTOCOL_DETAILS: IEDB peptide-MHC binding, purified MHC/competitive/fluorescence; bounds were set here for any values at or beyond the usual limits of such assays
- REPORTED_CONDITIONS: source organism: Vaccinia virus Copenhagen
EXPERIMENTAL_READOUT: IC50
The number alone won't do; follow it with the unit.

I have this sequence here, SKRERQLAK , and I need its recorded IC50.
30.4 µM

---

- STUDY_SYSTEM: HLA-B*15:01
- PROTOCOL_DETAILS: IEDB peptide-MHC binding, purified MHC/direct/fluorescence; filed as Kd, often an IC50 or EC50 that approximates it; bounds were set here for any values at or beyond the usual limits of such assays
- REPORTED_CONDITIONS: source organism: Mammarenavirus lassaense
pKd: −log10 of the molar value.
EXPERIMENTAL_READOUT: pKd

Recorded pKd for SHGIDVTDL , please?
≤ 4.70

---

- STUDY_SYSTEM: HLA-A*31:01
- PROTOCOL_DETAILS: IEDB peptide-MHC binding, purified MHC/direct/fluorescence; filed as Kd, often an IC50 or EC50 that approximates it; bounds were set here for any values at or beyond the usual limits of such assays
- REPORTED_CONDITIONS: source organism: Salmonella enterica
EXPERIMENTAL_READOUT: pKd
Keep in mind that pKd stands for -log10 of concentration in molar terms.

For the sequence RSWQPPQPR , what pKd is on record?
7.46

---

- STUDY_SYSTEM: HLA-A*29:02
- PROTOCOL_DETAILS: IEDB peptide-MHC binding, purified MHC/competitive/fluorescence; filed as Kd, often an IC50 or EC50 that approximates it; bounds were set here for any values at or beyond the usual limits of such assays
- REPORTED_CONDITIONS: source organism: Rattus norvegicus
pKd: −log10 of the molar value.
EXPERIMENTAL_READOUT: pKd

Recorded pKd of FFGETSHNY , please.
≥ 10.00

---

- STUDY_SYSTEM: HLA-A*33:01
- PROTOCOL_DETAILS: IEDB peptide-MHC binding, purified MHC/competitive/radioactivity; filed as Kd, often an IC50 or EC50 that approximates it; bounds were set here for any values at or beyond the usual limits of such assays
- REPORTED_CONDITIONS: source organism: Mammarenavirus machupoense
EXPERIMENTAL_READOUT: Kd (nM)
Entry rule: numbers only, all in nM.

Observed Kd on HLA-A*33:01 for EWMLIAAKMK , please.
49

---

Attribute: Kd
- STUDY_SYSTEM: HLA-A*30:01
- PROTOCOL_DETAILS: IEDB peptide-MHC binding, purified MHC/competitive/fluorescence; filed as Kd, often an IC50 or EC50 that approximates it; bounds were set here for any values at or beyond the usual limits of such assays
- REPORTED_CONDITIONS: source organism: Human immunodeficiency virus 1

Quick one: Kd of GSEEIKSLF ?
≥ 20 µM

What value of Kd has been reported for the following sequence? EKLKSLFNTI
0.0207 µM

Reported Kd, sequence KSLYNTVATLY : ____
≥ 20 µM

---

- STUDY_SYSTEM: HLA-A*02:01
- PROTOCOL_DETAILS: IEDB peptide-MHC binding, purified MHC/competitive/radioactivity; filed as Kd, often an IC50 or EC50 that approximates it; bounds were set here for any values at or beyond the usual limits of such assays
- REPORTED_CONDITIONS: source organism: Homo sapiens
pKd: −log10 of the molar value.
EXPERIMENTAL_READOUT: pKd

Return pKd measured with HLA-A*02:01 given this sequence: ALKRAQSEL
≤ 4.38

---

- STUDY_SYSTEM: HLA-A*03:01
- PROTOCOL_DETAILS: IEDB peptide-MHC binding, purified MHC/direct/fluorescence; filed as Kd, often an IC50 or EC50 that approximates it; bounds were set here for any values at or beyond the usual limits of such assays
- REPORTED_CONDITIONS: source organism: Haemophilus influenzae
EXPERIMENTAL_READOUT: Kd

Fill blank: measured Kd of the sequence IMDEPTSSL is ____.
≥ 20 µM

---

- STUDY_SYSTEM: HLA-A*68:02
- PROTOCOL_DETAILS: IEDB peptide-MHC binding, purified MHC/direct/fluorescence; filed as Kd, often an IC50 or EC50 that approximates it; bounds were set here for any values at or beyond the usual limits of such assays
- REPORTED_CONDITIONS: source organism: Giardia intestinalis
pKd: −log10 of the molar value.
EXPERIMENTAL_READOUT: pKd

For the sequence shown here, INTLESMMK , give the reported pKd.
≤ 4.70

---

- STUDY_SYSTEM: HLA-B*18:01
- PROTOCOL_DETAILS: IEDB peptide-MHC binding, purified MHC/direct/fluorescence; filed as Kd, often an IC50 or EC50 that approximates it; bounds were set here for any values at or beyond the usual limits of such assays
- REPORTED_CONDITIONS: source organism: Francisella tularensis subsp. tularensis
EXPERIMENTAL_READOUT: Kd

Any idea what its Kd is? The sequence is RYSNFAWYF
≥ 20 µM

---

Each record here notes measured Kd.
- STUDY_SYSTEM: HLA-B*46:01
- PROTOCOL_DETAILS: IEDB peptide-MHC binding, purified MHC/direct/fluorescence; filed as Kd, often an IC50 or EC50 that approximates it; bounds were set here for any values at or beyond the usual limits of such assays
- REPORTED_CONDITIONS: source organism: Camelpox virus M-96

1) RVATENIAV : ≥ 20 µM

Returns the measured Kd for the input sequence. Input: IQFMHEQGY
≥ 20 µM

---

- STUDY_SYSTEM: HLA-A*01:01
- PROTOCOL_DETAILS: IEDB peptide-MHC binding, purified MHC/competitive/radioactivity; filed as Kd, often an IC50 or EC50 that approximates it; bounds were set here for any values at or beyond the usual limits of such assays
- REPORTED_CONDITIONS: source organism: Lymphocytic choriomeningitis virus (strain Armstrong)
EXPERIMENTAL_READOUT: pKd
In plain terms, pKd is the concentration in mol/L turned into minus its base-10 logarithm.

Request: pKd, test system HLA-A*01:01, entry KVNTTIARY
5.79

---

- STUDY_SYSTEM: HLA-A*24:02
- PROTOCOL_DETAILS: IEDB peptide-MHC binding, purified MHC/direct/fluorescence; filed as Kd, often an IC50 or EC50 that approximates it; bounds were set here for any values at or beyond the usual limits of such assays
- REPORTED_CONDITIONS: source organism: Influenza A virus (A/England/627/01(H1N2))
pKd: −log10 of the molar value.
EXPERIMENTAL_READOUT: pKd

Recorded pKd for KMARLGKGY , please?
≤ 4.70

---

- STUDY_SYSTEM: HLA-B*39:01
- PROTOCOL_DETAILS: IEDB peptide-MHC binding, purified MHC/competitive/fluorescence; filed as Kd, often an IC50 or EC50 that approximates it; bounds were set here for any values at or beyond the usual limits of such assays
- REPORTED_CONDITIONS: source organism: Salmonella enterica
EXPERIMENTAL_READOUT: Kd (nM)
Provide the reading as a plain figure in nM.

Report Kd for YRYISFLVL please.
536

---

- STUDY_SYSTEM: HLA-A*11:01
- PROTOCOL_DETAILS: IEDB peptide-MHC binding, purified MHC/direct/fluorescence; filed as Kd, often an IC50 or EC50 that approximates it; bounds were set here for any values at or beyond the usual limits of such assays
- REPORTED_CONDITIONS: source organism: Corynebacterium glutamicum
pKd: −log10 of the molar value.
EXPERIMENTAL_READOUT: pKd

Fill blank: measured pKd of the sequence VLPVPGASV is ____.
≤ 4.70
